Reference source: the supplement of paper PMC10567573

Quick reference: protein stability index of the listed items.
B1: DLC1 (parent)
chain: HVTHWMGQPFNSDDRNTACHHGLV

variants of: B1; assay: protein stability index of a GFP-peptide fusion (GPS, HEK-293T) (PSI 1-6); higher = more stable; details: c terminus: a fixed tail appended;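 note: lentivirally expressed fusions sorted by FACS into six bins by GFP to DsRed ratio, PSI derived from sequencing read proportions per bin multiplied by bin number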
Lab note: write the figure by itself, no unit.

- VARIANT_STRING: "S12H"
  OBSERVED: 2.04
- VARIANT_STRING: "P9F"
  OBSERVED: 1.43
- VARIANT_STRING: "F10P"
  OBSERVED: 2.54
- VARIANT_STRING: "H4G"
  OBSERVED: 1.5
- VARIANT_STRING: "T3A"
  OBSERVED: 2.5
- VARIANT_STRING: "R15W"
  OBSERVED: 1.73
- VARIANT_STRING: "N16Q"
  OBSERVED: 2.67
- VARIANT_STRING: "M6K"
  OBSERVED: 3.28
- VARIANT_STRING: "C19E"
  OBSERVED: 2.92
- VARIANT_STRING: "R15Y"
  OBSERVED: 1.74

# input for lookup
[Q] Using the record for F10M , report its protein stability index.
[A] 2.53
